Taken from patent US6858638B2.

Target: human FAK (Homo sapiens)
Construct: The complete cDNA of human FAK; made in house; host or cells: baculovirus expression system (vector pFastBac HTc)
Sequence (Q05397 whole entry): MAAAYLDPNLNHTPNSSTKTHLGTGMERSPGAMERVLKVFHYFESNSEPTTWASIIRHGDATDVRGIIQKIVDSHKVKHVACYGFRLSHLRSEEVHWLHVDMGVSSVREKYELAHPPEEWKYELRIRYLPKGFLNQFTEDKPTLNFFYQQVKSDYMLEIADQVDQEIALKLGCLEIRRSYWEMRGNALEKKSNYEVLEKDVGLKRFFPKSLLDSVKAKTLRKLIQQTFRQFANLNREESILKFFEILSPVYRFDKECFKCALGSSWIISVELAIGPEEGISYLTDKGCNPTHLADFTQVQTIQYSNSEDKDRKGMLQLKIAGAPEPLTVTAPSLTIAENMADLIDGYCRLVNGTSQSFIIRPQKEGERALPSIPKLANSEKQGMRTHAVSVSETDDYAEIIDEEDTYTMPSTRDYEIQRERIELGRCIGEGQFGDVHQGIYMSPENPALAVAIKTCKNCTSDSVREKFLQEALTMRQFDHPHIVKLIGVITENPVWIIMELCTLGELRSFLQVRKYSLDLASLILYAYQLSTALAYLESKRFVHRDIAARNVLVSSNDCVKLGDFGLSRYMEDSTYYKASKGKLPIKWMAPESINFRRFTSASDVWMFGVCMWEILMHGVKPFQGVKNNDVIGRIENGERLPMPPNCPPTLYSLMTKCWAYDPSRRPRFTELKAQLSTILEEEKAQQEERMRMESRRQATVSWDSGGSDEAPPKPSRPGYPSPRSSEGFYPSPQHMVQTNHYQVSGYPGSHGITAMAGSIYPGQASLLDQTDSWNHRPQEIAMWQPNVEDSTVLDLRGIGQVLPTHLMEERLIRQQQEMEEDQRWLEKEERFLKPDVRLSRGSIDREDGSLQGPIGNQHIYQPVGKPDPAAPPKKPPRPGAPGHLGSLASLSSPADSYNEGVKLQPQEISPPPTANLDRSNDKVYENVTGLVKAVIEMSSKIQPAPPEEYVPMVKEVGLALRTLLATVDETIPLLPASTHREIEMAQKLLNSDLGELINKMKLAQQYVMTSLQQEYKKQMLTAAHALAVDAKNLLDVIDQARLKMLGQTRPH
Test: FAK autophosphorylation inhibition, time resolved fluorescence (HTRF) assay
Format: biochemical
Details: 10 μM (values without asterisk); read-out: FAK % inhib at 10 μM
Entry flag: Y if inhibition at 10 µM reaches 90%; N if it does not.

QUERY: Kindly determine if inhibition at 10 µM recorded for CS(=O)(=O)c1ccccc1S(=O)(=O)Nc1ccc2[nH]nc(-c3ccc[nH]3)c2c1 is above or exactly 90%.
RESULT: Y

QUERY: Kindly determine if inhibition at 10 µM recorded for CS(=O)(=O)c1ccccc1S(=O)(=O)Nc1ccc2[nH]nc(-c3ccc(N)cc3)c2c1 is above or exactly 90%.
RESULT: Y

QUERY: Kindly determine if inhibition at 10 µM recorded for CS(=O)(=O)c1ccccc1S(=O)(=O)Nc1ccc2[nH]nc(-c3ccco3)c2c1 is above or exactly 90%.
RESULT: Y

QUERY: Kindly determine if inhibition at 10 µM recorded for CS(=O)(=O)c1ccccc1S(=O)(=O)Nc1ccc2[nH]nc(CCc3ccc(F)cc3)c2c1 is above or exactly 90%.
RESULT: N

QUERY: Kindly determine if inhibition at 10 µM recorded for COc1ccc2[nH]c(-c3n[nH]c4ccc(NS(=O)(=O)c5ccccc5S(C)(=O)=O)cc34)cc2c1 is above or exactly 90%.
RESULT: Y

QUERY: Kindly determine if inhibition at 10 µM recorded for O=S(=O)(Nc1ccc2[nH]nc(-c3ccccc3)c2c1)c1ccc(F)cc1 is above or exactly 90%.
RESULT: N

* * *

Give measured inhibition at 10 µM for each item. Keep answers brief.
Biological target: Aurora2 kinase (Homo sapiens)
Construct: A complete recombinant Aurora2 enzyme; His tag (N); made in house; host or cells: E. coli
Sequence (O14965 1-403): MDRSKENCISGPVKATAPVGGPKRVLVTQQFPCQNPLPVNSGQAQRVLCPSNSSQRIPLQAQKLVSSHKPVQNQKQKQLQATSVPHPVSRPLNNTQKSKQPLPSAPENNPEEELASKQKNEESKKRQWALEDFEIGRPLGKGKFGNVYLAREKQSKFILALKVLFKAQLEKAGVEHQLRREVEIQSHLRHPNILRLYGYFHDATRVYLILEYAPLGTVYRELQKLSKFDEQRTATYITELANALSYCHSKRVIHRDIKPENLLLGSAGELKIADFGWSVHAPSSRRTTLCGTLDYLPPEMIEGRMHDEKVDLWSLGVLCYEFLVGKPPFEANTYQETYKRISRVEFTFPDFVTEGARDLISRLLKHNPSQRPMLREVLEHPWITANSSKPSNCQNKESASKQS
Experiment: Aurora2 kinase radioactivity scintillation assay using nickel chelate (NuMA substrate)
Assay type: biochemical
Conditions: 10 μM; read-out: Aurora2 % inhib at 10 μM
Protocol: The inhibitory effect of compounds with respect to the Aurora2 kinase is determined with a radioactivity scintillation assay using nickel chelate. […] The kinase acivitity of Aurora2 is measured by scintillation with nickel chelate (New England Nuclear, model SMP107). […] The radioactivity is measured in each well using a Packard Model Top Count NXT device. […]
Note: a bare number is incomplete; add the unit.

QUERY: Report inhibition at 10 µM, nothing else, for this compound: O=S(=O)(Nc1ccc2[nH]nc(-c3ccccc3)c2c1)c1cccs1
RESULT: 100%

QUERY: Report inhibition at 10 µM, nothing else, for this compound: CS(=O)(=O)c1ccccc1S(=O)(=O)Nc1ccc2[nH]nc(-c3cccc4cccnc34)c2c1
RESULT: 90%

QUERY: Report inhibition at 10 µM, nothing else, for this compound: O=S(=O)(Nc1ccc2[nH]nc(Cl)c2c1)c1cccc(F)c1
RESULT: 46%

QUERY: Report inhibition at 10 µM, nothing else, for this compound: COc1ccc2[nH]c(-c3n[nH]c4ccc(NS(=O)(=O)c5ccccc5S(C)(=O)=O)cc34)cc2c1
RESULT: 100%

QUERY: Report inhibition at 10 µM, nothing else, for this compound: Cc1ccc(-c2n[nH]c3ccc(NS(=O)(=O)c4ccccc4S(C)(=O)=O)cc23)cc1C
RESULT: 91%

QUERY: Report inhibition at 10 µM, nothing else, for this compound: CS(=O)(=O)c1ccccc1S(=O)(=O)Nc1ccc2[nH]nc(C(=O)NC3CCCCC3)c2c1
RESULT: 80%

QUERY: Report inhibition at 10 µM, nothing else, for this compound: O=S(=O)(Nc1ccc2[nH]nc(-c3ccccc3)c2c1)c1ccc(Cl)s1
RESULT: 100%

* * *

Target: Aurora2 kinase (Homo sapiens)
Construct: A complete recombinant Aurora2 enzyme; His tag (N); made in house; host or cells: E. coli
Experiment: Aurora2 kinase radioactivity scintillation assay using nickel chelate (NuMA substrate)
Format: biochemical
Conditions: 10 μM; read-out: Aurora2 % inhib at 10 μM
observable: inhibition at 10 µM
Note: a bare number is incomplete; add the unit.

QUERY: Report inhibition at 10 µM, nothing else, for this compound: CS(=O)(=O)c1ccccc1S(=O)(=O)Nc1ccc2[nH]nc(-c3ccncc3)c2c1 [Example 54]
RESULT: 100%

QUERY: Report inhibition at 10 µM, nothing else, for this compound: CCS(=O)(=O)Nc1ccc2[nH]nc(-c3ccccc3)c2c1 [Example 127]
RESULT: 78%

QUERY: Report inhibition at 10 µM, nothing else, for this compound: CS(=O)(=O)c1ccccc1S(=O)(=O)Nc1ccc2[nH]nc(-c3ccc(OCc4ccccc4)cc3)c2c1 [Example 209]
RESULT: 67%

QUERY: Report inhibition at 10 µM, nothing else, for this compound: CS(=O)(=O)c1ccccc1S(=O)(=O)Nc1ccc2[nH]nc(-c3ccc(C(=O)O)cc3)c2c1 [Example 69]
RESULT: 99%

QUERY: Report inhibition at 10 µM, nothing else, for this compound: O=[N+]([O-])c1ccccc1S(=O)(=O)Nc1ccc2[nH]nc(-c3ccccc3)c2c1 [Example 113]
RESULT: 100%

QUERY: Report inhibition at 10 µM, nothing else, for this compound: CS(=O)(=O)c1ccccc1S(=O)(=O)Nc1ccc2[nH]nc(-c3ccc(OC(F)(F)F)cc3)c2c1 [Example 206]
RESULT: 85%

QUERY: Report inhibition at 10 µM, nothing else, for this compound: CS(=O)(=O)c1ccccc1S(=O)(=O)Nc1ccc2[nH]nc(-c3csc4ccccc34)c2c1 [Example 64]
RESULT: 72%

QUERY: Report inhibition at 10 µM, nothing else, for this compound: CS(=O)(=O)c1ccccc1S(=O)(=O)Nc1ccc2[nH]nc(-c3cc(Cl)ccc3Cl)c2c1 [Example 225]
RESULT: 49%

* * *

Biological target: Aurora2 kinase (Homo sapiens)
Construct: A complete recombinant Aurora2 enzyme; His tag (N); made in house; host or cells: E. coli
Sequence (O14965 1-403): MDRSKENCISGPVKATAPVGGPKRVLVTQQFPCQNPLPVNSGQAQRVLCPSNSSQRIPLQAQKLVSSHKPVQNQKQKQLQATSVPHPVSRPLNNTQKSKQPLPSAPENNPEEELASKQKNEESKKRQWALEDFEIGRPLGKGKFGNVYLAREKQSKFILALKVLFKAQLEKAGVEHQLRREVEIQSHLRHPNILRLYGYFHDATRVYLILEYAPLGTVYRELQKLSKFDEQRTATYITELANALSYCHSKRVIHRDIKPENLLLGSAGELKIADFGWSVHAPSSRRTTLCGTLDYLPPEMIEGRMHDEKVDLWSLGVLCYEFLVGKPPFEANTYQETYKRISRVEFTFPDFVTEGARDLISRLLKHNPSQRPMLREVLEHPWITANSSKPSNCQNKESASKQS
Test: Aurora2 kinase radioactivity scintillation assay using nickel chelate (NuMA substrate)
Format: biochemical
Conditions: 10 μM; read-out: Aurora2 % inhib at 10 μM
Give measured inhibition at 10 µM for each item. Keep answers brief.
Note: a bare number is incomplete; add the unit.

QUERY: Report inhibition at 10 µM, nothing else, for this compound: CS(=O)(=O)c1ccccc1S(=O)(=O)Nc1ccc2[nH]nc(-c3cccc(Br)c3)c2c1
RESULT: 93%

QUERY: Report inhibition at 10 µM, nothing else, for this compound: COc1ccc(-c2n[nH]c3ccc(NS(=O)(=O)c4ccccc4S(C)(=O)=O)cc23)cc1
RESULT: 92%

QUERY: Report inhibition at 10 µM, nothing else, for this compound: O=S(=O)(Nc1ccc2[nH]nc(-c3ccccc3)c2c1)c1ccc(Cl)c(Cl)c1
RESULT: 59%

QUERY: Report inhibition at 10 µM, nothing else, for this compound: Cc1n[nH]c2ccc(NS(=O)(=O)c3ccc(Cl)c(Cl)c3)cc12
RESULT: 50%

* * *

Molecular target: Aurora2 kinase (Homo sapiens, UniProt O14965)
Construct: A complete recombinant Aurora2 enzyme; His tag (N); made in house; host or cells: E. coli
Assay: Aurora2 kinase radioactivity scintillation assay using nickel chelate (NuMA substrate)
Assay type: biochemical
Details: 10 μM; read-out: Aurora2 % inhib at 10 μM
observable: inhibition at 10 µM (%)
// return numeric value only (unit: %, not printed)

QUERY: Report inhibition at 10 µM, nothing else, for this compound: O=S(=O)(Nc1ccc2[nH]nc(-c3ccccc3)c2c1)c1cc(F)cc(F)c1
RESULT: 100

QUERY: Report inhibition at 10 µM, nothing else, for this compound: O=S(=O)(Nc1ccc2[nH]nc(-c3ccccc3)c2c1)C1CCNCC1
RESULT: 44

QUERY: Report inhibition at 10 µM, nothing else, for this compound: CCSc1ccc(-c2n[nH]c3ccc(NS(=O)(=O)c4ccccc4S(C)(=O)=O)cc23)cc1
RESULT: 89

QUERY: Report inhibition at 10 µM, nothing else, for this compound: CC(=O)c1ccc(-c2n[nH]c3ccc(NS(=O)(=O)c4ccccc4S(C)(=O)=O)cc23)cc1
RESULT: 94

QUERY: Report inhibition at 10 µM, nothing else, for this compound: O=S(=O)(Cc1ccccc1)Nc1ccc2[nH]nc(-c3ccccc3)c2c1
RESULT: 65
